Consider the following compounds; for each one, report its GI50.
- System: IGROV1 ovarian
- Protocol: NCI tumour cell line growth inhibition, 48 h

Quick note, GI50 for O=c1c2[nH]ccc2nc2n1CCS2 landed at > 100 µM

Quick note, GI50 for Cc1ccc(/C(=C/C=C(/C#N)C(N)=O)Sc2ncnn2C)cc1 landed at 18 µM

Quick note, GI50 for O=C(Nc1ccc(-n2ccc3c(NC(=O)c4ccccc4)ncnc32)cc1)c1ccc(Cl)c(C(F)(F)F)c1 landed at 5.81 µM

Quick note, GI50 for c1ccc(-c2nc([P+](c3ccccc3)(c3ccccc3)c3ccccc3)c(N3CCOCC3)o2)cc1 landed at 0.557 µM

The measured values listed here are drawn from PubChem BioAssay (NCI).
